Tested On: hemagglutinin (HA) of influenza B virus B/Florida (Yamagata lineage) (influenza B virus B/Florida/06 …)
Assay Comment: ForteBio Octet; antigen on the sensor, varying antibody concentrations
Assay Endpoint: Kd
Lab note: write values as number then unit, every time.

# Binder, Kd
records = [
    ("TRL849 (antibody, V domains shown) VH: QVQLVESGPGLVKPSQTLSLTCTVSGGSISNGGYHWSWIRQHPGKGLEWIGNIYYRGSTFYDPSLKSRVTISVDTSKSQFSLKLTSVTAADTAVYYCARMPLANYDLLTGLYIGAFDLWGQGTMVTVSS VL: DIVLTQSPATLSVSPGERATLSCRASQSVNRNLAWFQQIPGQAPRLLIFDASTRAADIPARFSGGGSGAEFTLTVSSLQPEDFAVYYCQQYDKWPPGFGQGTKVEIKR", "200 pM"),
]

Please list Kd recorded for the binder TRL845 (antibody, V domains shown) VH: QVQLVQSGGDLVQPGGSLRLSCAASGFTFSRYSMNWVRQAPGMGLEWVAYISDTSRTIYYADSVKGRFTISRDNAKNSLYLQMKSLRDEDTAVYYCARDPDTPFVRAFDSWGQGTLVTVSS VL: DIVLTQSPSFLSASVGDRVTITCRASQLISSYFAWYQQKPGKPPKLLIYAASTLQSGVPSRFSGSGSGTQFSLTISSLQPEDFATYYCQQLNSYPPITFGQGTRLEIKR
5200 pM

Please look at this binder and report its Kd: TRL832 (antibody, V domains shown) VH: QVQLVESGPGLMKPSETLSLTCTVSGGSVSNYYWSWIRQPPGKGLEWIGYVFYSGSSNYNPSLNNPSLKSRVTISIDTSNNQFSLKLSSVTAADTAVYYCARGRVNSGYDWGPNFDSWGQGALVTVSS VL: DIVLTQAPSVSVSPGQTASITCSGDRLGEKFASWYQQKPGQSPVLVIYEDSKRPSGIPDRFSGSNSGNTATLTISGTQIMDEGDFFCQAWDSSTVVFGGGTKLTVLG
1700 pM

Consider the binder TRL809 (antibody, V domains shown) VH: QVQLLESGGGVVRPGRSLRLACAGSGFTFSAYAMHWVRQAPGKGLEWVAHTSYDGRDSYYVDSVKGRFTISRDDSKNTLYLQMNSLRPEDTAVYYCAKVGPYTGYDDYNYYGMDVWGHGTTVTVSS VL: DIVLTQSPVSLAVSLGESATVNCKSSQSVLSNSKNLNYLAWYQHKPGQPPKLLIYWASTRESGVPDRFSGSGSGTDFTLTISSLQAEDVAVYYCQQHYSIPLTFGPGTKVDIKR . State its measured Kd.
180 pM
